Parameter potency estimated from few doses: see the listing below.
tested on: DDR1; design: species or system human, MV4-11 + K-562 + COLO205 + SK-N-BE2 + OVCAR-8; conditions: read-out: apparent Kd; compound concentrations:100 nM and 1000 nM (sheet 'Samples'); n = 1
measured_property: potency estimated from few doses (nM)

compound	target_or_system	measured_result
COC(=O)Nc1nc2cc(Oc3ccc(NC(=O)Nc4cc(C(F)(F)F)ccc4F)cn3)ccc2[nH]1.COC(=O)Nc1nc2cc(Oc3ccc(NC(=O)Nc4cc(C(F)(F)F)ccc4F)cn3)ccc2[nH]1.Cl.Cl [GW681170A]	DDR1	278
Cn1cc(-c2ccc3c(c2)CCN3C(=O)Cc2cccc(C(F)(F)F)c2)c2c(N)ncnc21 [GSK2606414A]	DDR1	1550
CNc1ncc2cc(Oc3ccc(F)cc3F)c(=O)n(C)c2n1	DDR1	958

* * *

Measured potency estimated from few doses, listed per entry for reference.
test system: CAMKK2; parameters: species or system human, MV4-11 + K-562 + COLO205 + SK-N-BE2 + OVCAR-8; conditions: read-out: apparent Kd; compound concentrations:100 nM and 1000 nM (sheet 'Samples'); n = 1
measured_property: potency estimated from few doses

> print(dat)
                                   compound  measured.result
1  NCCNS(=O)(=O)c1ccc(-c2ccnc3[nH]ccc23)cc1 [GSK977617A]          1970 nM
2  CC(C)N1CCC(n2cnc(-c3ccc(F)cc3)c2-c2ccnc(N)n2)CC1 [SB-223132]           940 nM
3  CC(=O)N[C@@H](Cc1ccc(OP(=O)(O)O)cc1)C(=O)N[C@H]1CCC(=O)N2CCC[C@@H](C(=O)NCc3ccc(Cl)cc3)N2C1=O [RO0325308-000]          1320 nM
4  CS(=O)(=O)CCn1c(=O)c(Oc2ccc(F)cc2F)cc2cnc(NC3CCOCC3)nc21 [RO5027956-000]          1270 nM

* * *

system: BMP2K; design: species or system human, MV4-11 + K-562 + COLO205 + SK-N-BE2 + OVCAR-8; conditions: read-out: apparent Kd; compound concentrations:100 nM and 1000 nM (sheet 'Samples'); n = 1
# binarize potency estimated from few doses: threshold 700 nM inclusive, high side Fulfilled, low side Not fulfilled

> print(dat)
                                   molecule  qualitative.label
1  O=C(O)C(F)(F)F.O=c1[nH]ccc2nc(N[C@@H]3CCNC3)nc(Nc3cc(Cl)cc(Cl)c3)c12 [GSK2188764A]          Fulfilled
2  NC(=O)Nc1sc(-c2ccc(F)cc2)cc1C(N)=O [GW789449X]          Fulfilled
3  CNC(=O)c1ccccc1Nc1nc(Nc2ccc(N3CCOCC3)cc2)ncc1Cl.Cl [GSK1576028A]          Fulfilled
4  CS(=O)(=O)Nc1ccc(-c2ccnc3[nH]ccc23)cc1 [GSK993273A]          Fulfilled
5  COc1cc2ncn(-c3cc(OCc4cccs4)c(C(N)=O)s3)c2cc1OC [GSK312948A]          Fulfilled
6  CN(C)CC(O)COc1ccc(Nc2nccc(-c3cnn4nc(N5CCOCC5)ccc34)n2)cc1 (stereo not shown) [GW767488X]      Not fulfilled
7  NS(=O)(=O)c1ccc(N/N=C2\C(=O)Nc3ccc(-c4cnco4)cc32)cc1      Not fulfilled

* * *

Measured potency estimated from few doses of individual entries
test system: RIPK2; design: species or system human, MV4-11 + K-562 + COLO205 + SK-N-BE2 + OVCAR-8; conditions: read-out: apparent Kd; compound concentrations:100 nM and 1000 nM (sheet 'Samples'); n = 1
measured_property: potency estimated from few doses (µM)

> print(dat)
                                   compound                 measured.property  measured.result
1  Cl.O=C(O[C@H]1CN[C@H](C#Cc2cc3ncnc(Nc4ccc5c(cnn5Cc5ccccc5)c4)c3s2)C1)N1CCOCC1  potency estimated from few doses            0.936
2  CC(=O)c1c(-c2ccncc2)[nH]c(-c2ccncc2)c1C [GW493036X]  potency estimated from few doses                1
3   Fc1ccc(-c2c(-c3ccncc3)[nH]c3nccnc23)cc1  potency estimated from few doses            0.828
4  Cl.Oc1ccc2ncnc(Nc3ccc(OCc4ccccc4)cc3)c2c1 [GI262866A]  potency estimated from few doses            0.923
5  COc1cccc(-c2nc(-c3ccccc3)[nH]c2-c2ccncc2)c1  potency estimated from few doses            0.204

* * *

test system: GAK; parameters: species or system human, MV4-11 + K-562 + COLO205 + SK-N-BE2 + OVCAR-8; settings: read-out: apparent Kd; compound concentrations:100 nM and 1000 nM (sheet 'Samples'); n = 1
Reported potency estimated from few doses is given for each of the following compounds.
measured_property: potency estimated from few doses

> print(dat)
                                   compound                 measured.property  measured.result
1  CC(C)N1CCC(n2cnc(-c3ccc(F)cc3)c2-c2ccnc(N)n2)CC1  potency estimated from few doses           333 nM
2  COc1cc(N2CCN(C(C)C)CC2)ccc1Nc1nc(Nc2ccc(F)cc2C(=O)NC[C@@H](O)CO)c2cc[nH]c2n1 [GSK1392956A]  potency estimated from few doses          50.4 nM
3  CC(C)c1nc(-c2ccc(F)c(NS(=O)(=O)c3c(F)cccc3F)c2)c(-c2ccnc(Nc3ccc(N4CCOCC4)nc3)n2)s1 [GSK1804250A]  potency estimated from few doses           600 nM
4  CN1C[C@@H]2Cn3c(c(C4=C(c5cn(C)c6ccccc56)C(=O)NC4=O)c4ccccc43)C[C@H]2C1.Cl  potency estimated from few doses           186 nM
5  CN(C)CCNC(=O)Nc1ccc(N(C)c2ccnc(Nc3ccc(CS(C)(=O)=O)cc3)n2)cc1.Cl [GW830900A]  potency estimated from few doses          1450 nM
6  CC(=O)N[C@@H](Cc1ccc(OP(=O)(O)O)cc1)C(=O)N[C@H]1CCC(=O)N2CCC[C@@H](C(=O)NCc3ccc(Cl)cc3)N2C1=O  potency estimated from few doses          59.4 nM
7  c1ccc(-c2n[nH]cc2-c2ccnc(-c3ccc(CNC4CCOCC4)cc3)c2)nc1 [GW709213X]  potency estimated from few doses          1150 nM

* * *

test system: ILK; design: species or system human, MV4-11 + K-562 + COLO205 + SK-N-BE2 + OVCAR-8; conditions: read-out: apparent Kd; compound concentrations:100 nM and 1000 nM (sheet 'Samples'); n = 1
Lab note: cut-off is 2000 nM. Strictly less in potency estimated from few doses is Satisfied. Exactly 2000 nM or more is Not satisfied.

> print(dat)
                                   compound  qualitative.label
1  Nc1nc(-c2ccc(F)cc2)c(-c2ccc3ncccc3n2)s1 [GW785804X]      Not satisfied
2  CN1C[C@@H]2Cn3c(c(C4=C(c5cn(C)c6ccccc56)C(=O)NC4=O)c4ccccc43)C[C@H]2C1.Cl      Not satisfied
3  COC(=O)Nc1nc2cc(Oc3ccc(NC(=O)Nc4cc(C(F)(F)F)ccc4Cl)cc3)ccc2[nH]1.Cl [GW697465A]      Not satisfied
4  Cc1ccc(-n2nc(C(C)(C)C)cc2NC(=O)Nc2ccc(OCCN3CCOCC3)cc2)cc1 [BIRB0876BS]          Satisfied
5  Cc1cc(Nc2nc(-c3cccc(C)n3)nc3ccccc23)ccn1 [GW872411X]          Satisfied

* * *

system: ROCK2; parameters: species or system human, MV4-11 + K-562 + COLO205 + SK-N-BE2 + OVCAR-8; conditions: read-out: apparent Kd; compound concentrations:100 nM and 1000 nM (sheet 'Samples'); n = 1
Please note: 1.0 applies when potency estimated from few doses is 200 nM or greater, and 0.0 applies otherwise.

compound	qualitative_label
CCn1c(-c2nonc2N)nc2cnc(Oc3cccc(NC(=O)c4ccc(N(C)C)cc4)c3)cc21 [GSK248233A]	0.0
Cl.Cl.NC[C@H](Cc1ccc(C(F)(F)F)cc1)NC(=O)c1cc(Br)c(-c2ccnc3[nH]ccc23)s1.NC[C@H](Cc1ccc(C(F)(F)F)cc1)NC(=O)c1cc(Br)c(-c2ccnc3[nH]ccc23)s1 [GSK1487252A]	0.0
COc1ccc(O)c(C(=O)c2ccc(C(=O)O[C@@H]3CCCNC[C@H]3NC(=O)c3ccncc3)cc2)c1F.Cl	0.0
CCn1c(-c2nonc2N)nc2c(C#CC(C)(C)O)nc(O[C@@H](CN)c3ccccc3)cc21.O=C(O)C(F)(F)F [GSK1007102B]	1.0
CC1=C(C(=O)Nc2ccc3[nH]ncc3c2)C(c2ccc(Cl)c(Cl)c2)CC(=O)N1 (centres unmarked) [GSK299115A]	0.0

Reference source: paper PMC11062922
